experimental_endpoint: melting point

Answered cases to consult:
{"molecule": "CCCn1nc2c(N)nc3ncccc3c2c1CC(C)(C)O", "result": "252 to 255 °C"}
{"molecule": "CCOCCOc1c(C)cc(C#CC2(O)CN3CCC2CC3)cc1C (stereo not drawn)", "result": "113 to 115 °C"}

The molecule listed as CC(C)(C)OC(=O)C=Cc1cncc2ccccc12 has a reported melting point of 81 to 83 °C

---

experimental_endpoint: melting point (°C)
Answers are plain numbers, in °C.

{"molecule": "CCCCc1cnc(-c2cnc(-c3ccc(F)cc3)nc2)nc1", "melting point (°C)": 196}
{"molecule": "COc1cccc(CCN2C(=O)c3c(F)ccc(F)c3C2(O)c2ccccc2)c1 (stereo not given)", "melting point (°C)": 141}
{"molecule": "CCOc1ccc(C=CC(=O)c2c(OC)cc(OC)cc2OC(=O)CC)cc1", "melting point (°C)": 105}

What the record says about CC(C)n1c(=O)n(CC2CNCCO2)c2ccccc21 (stereo not given) : melting point is 95

---

I'd appreciate it if you could supply melting point values for the items below.

Here's what some known entries look like.
{"compound": "CCCNc1ncnc2c1ncn2Cc1c(F)cccc1Cl", "result": "166 to 167 °C"}
{"compound": "COc1ccc(CC(C)NC(O)Cc2cc3ccccc3o2)cc1 (configuration not stated)", "result": "75 to 85 °C"}

I need melting point for every entry listed below, if you could help.
1. CCCC1CCC(C2CCC3(CC2)C(=O)C2(CCC(C4CCC(CCC)CC4)CC2)C3=O)CC1 (configuration not stated)
2. O=C(COCc1ccccc1)Nc1ccc(OC(=O)COCc2ccccc2)cc1
3. OC1CSC(Oc2cccc(-c3ccncc3Cl)c2)C(O)C1O (configuration not stated)
4. COc1cc(C(=O)NCC2c3ccccc3CCN2CCO)cc(OC)c1OC (configuration not stated)
5. O=S1(=O)c2cccc3cccc(c23)N1CCCN1CCN(c2ccc(O)cc2)CC1

Out:
["290 °C", "55.5 to 58.5 °C", "158 to 161 °C", "138 to 140 °C", "185 °C"]

---

Assignment: determine reported melting point for the given molecules.

Reference set (3 entries):
{"molecule": "CN1C2CCC(NC(=O)c3n[nH]c4ccccc34)C1CC2 (stereo not drawn)", "experimental_endpoint": "melting point", "result": "222 to 224 °C"}
{"molecule": "CC(=O)c1sc2c(Br)cccc2c1C", "experimental_endpoint": "melting point", "result": "105 to 107 °C"}
{"molecule": "CSC(Cc1ccc(OCCN(C)c2nc3ccccc3o2)cc1)C(=O)O (stereo not drawn)", "experimental_endpoint": "melting point", "result": "140 to 141 °C"}

Quick one: give me melting point for each item below, same order please.
1. CCNCC1CN(c2c(F)cc3c(=O)c(C(=O)O)cn(C4CC4)c3c2F)CC1C (stereo not drawn)
2. CC(=O)Nc1ccc([N+](=O)[O-])cc1OC[Si](C)(C)C
3. O=C1NC(=O)C(CCCc2ccc(O)cc2)O1 (stereo not drawn)
4. CC(C)(C)OC(=O)N1CCC=C(c2ccnc(C(=O)N(O)Cc3ccccc3)c2)C1

Out:
1: 224 to 226 °C; 2: 128 °C; 3: 132 to 133 °C; 4: 128 to 134 °C

// each listed molecule needs a value for melting point
1. CC(=O)Nc1cc(C(C)(C)C)nn1C(=NOS(=O)(=O)c1ccc(C)cc1)C(C)CN1C(=O)c2ccccc2C1=O (stereo not drawn)
2. Cc1ccc(-c2[nH]c(-c3c(Cl)cccc3Cl)nc2-c2ccncc2)cc1
3. CC1(C)OC(=C(C#N)C#N)C(C#N)=C1c1ccc(-n2cc(-c3ccccc3)nn2)cc1
4. O=C(Cc1ccc(Cl)cc1)N1CCc2cc(S(=O)(=O)N3CCN(c4cccc(Cl)c4)CC3)ccc21

Out:
["170 to 172 °C", "295 to 296 °C", "280 °C", "186 to 187 °C"]

Respectfully, I request melting point for each entry included below.
1. CCOC(=O)c1cc(S(=O)(=O)c2ccccc2)c2ccccn2c1=O
2. O=C1Nc2cc(C(F)(F)F)cc(C(F)(F)F)c2C1(O)c1cc(Cl)ccc1O (stereo not drawn)
3. COc1ccc(C(=O)Nc2c(C)c(C)c3c(c2C)C(c2ccc(C)cc2)C(C)(C)O3)cc1OC (stereo not drawn)
4. CCOC(=O)CN1C(=O)C(NC(=O)Nc2ccc(Cl)cc2)N=C(c2ccccc2)c2ccccc21 (stereo not drawn)
5. CCOP(=O)(Cc1c(C)cc(O)cc1C1CCCCC1)OCC

Out:
1. 182 °C
2. 191 to 193 °C
3. 169 to 171 °C
4. 228 to 229 °C
5. 73 °C

Give measured melting point for every item shown.
1. Cc1nc(Cc2ccccc2)c2c(c1O)COC2
2. CN(c1nccc(-n2nnc3ccccc32)n1)[C@H]1CC[C@H](N(C)S(C)(=O)=O)CC1

Out:
1. 212 to 214 °C
2. 204 °C

---

experimental_endpoint: melting point

Consider the following illustrative entries.
{"compound": "COC(=O)c1cc(OCc2ccccc2)c(OCc2ccccc2)c(OCc2ccccc2)c1", "result": "102 to 103 °C"}
{"compound": "N#Cc1coc(CBr)c1", "result": "40 to 45 °C"}
{"compound": "NC(=O)C1CCc2cc(S(=O)(=O)Cl)ccc2O1 (stereo unspecified)", "result": "147 to 148 °C"}
{"compound": "ON=Cc1ccc(-c2ccc(O)cc2)c(Cl)c1Cl", "result": "208 to 210 °C"}
{"compound": "COCN(c1cccc2cc(-c3ncn(C)n3)n(COC)c12)S(=O)(=O)c1cccs1", "result": "157 to 158 °C"}
{"compound": "CCOC(=O)c1c(S(N)=O)c2cc(C)ccc2n1C (stereo unspecified)", "result": "118 °C"}

Here are 7 compounds. What values of melting point were reported for them?
1. CC(C)(C)c1cc(Cl)c2c(c1)C=NS(=O)(=O)O2
2. CC1CCCN(c2c(Br)cc3c4c(cccc24)C(=O)N(O)C3=O)C1 (stereo unspecified)
3. CN(C)CCNC(=O)c1ccc(-c2ccccc2CSCCOc2ccccc2)cc1
4. O=C1N(c2ccccc2)CCN1C1CCN(Cc2ccccc2)CC1
5. CNC(=C[N+](=O)[O-])NCc1ccc(Cl)cc1
6. Oc1ccc2c(c1)C(Cc1ccnc(F)c1)(Cc1ccnc(F)c1)c1ccccc1-2
7. Cc1cc(F)cc(-c2ccc3c(c2)C2(C=N3)CCCCC2)c1

Out:
1. 127 to 130 °C
2. > 250 °C
3. 93 to 96 °C
4. 168 to 170 °C
5. 219 to 220 °C
6. 200 to 201 °C
7. 180 to 182 °C

Hello, I would appreciate it if you could give melting point for each entry below.
1. O=C1C=CCC(CCc2ccc(Cl)cc2Cl)O1 (stereo unspecified)
2. CCN(c1ccc(C(C)=O)cc1)c1nc(=O)c2cccnc2s1
3. O=C(NCC1(c2ccccc2)CCCCC1)Nc1ccc(Cl)c(Cl)c1
4. CC(C)(C)[Si](C)(C)Oc1ccc(CCNc2ncnc3nccnc23)cc1
5. OC(=S)c1ccc2cccnc2c1O

Out:
["69 to 70 °C", "204 °C", "180 to 181 °C", "164 to 165 °C", "174 to 175 °C"]

---

So I've got a bunch of molecules here, and I need their melting point values.

{"molecule": "O=C(OCc1ccccc1)N1C[C@@H]2CN(c3ccc(N4C[C@H](CO)OC4=O)cc3F)C[C@@H]2C1", "melting point": "168 to 171 °C"}
{"molecule": "CCOC(=O)C=CC1C(C(=O)O)C1(C)C (centres undefined)", "melting point": "96 °C"}
{"molecule": "Cc1ccc(C)n1-c1cc2c(cc1C(F)(F)F)[nH]c(=O)c(=O)n2CC(=O)NCc1ccccc1", "melting point": "> 250 °C"}

Give one value of melting point per listed molecule.
1. CC(C)(C)OC(=O)CN(CBr)C(=O)c1ccccc1
2. Oc1ccc(-c2nnc(CSCCCCOc3ccccc3)o2)cc1
3. CCCCCCCCC=CC(=O)c1c(C)[nH]n(-c2ccccc2)c1=O

Out:
1. 98 to 102 °C
2. 129 to 130 °C
3. 40 °C

Required: melting point, one value per molecule below.
1. COC(=O)C(=O)NCCCCCC1CCSS1 (centres undefined)
2. Cc1oc(-c2ccccc2)nc1COc1ccc(CCCCC2OC(=O)NC2=O)cc1 (centres undefined)

Out:
1: 42 to 43 °C; 2: 186 to 187 °C

Give one value of melting point per listed molecule.
1. O=S(=O)(Nc1cccc(F)c1)c1cc(S(=O)(=O)Nc2cccc(F)c2)c2cc(O)ccc2c1
2. Cn1ncnc1-c1ccc(C(=O)N2Cc3cccn3Cc3ccccc32)cc1
3. CN(C)S(=O)(=O)Oc1ccccc1S(N)(=O)=O
4. Cc1ccc(-c2ccc3c(c2)C(=O)CCC3)cc1

Out:
110 to 112 °C
155 to 158 °C
88 to 89 °C
86 to 87 °C

Please go through the list and note melting point for each molecule.
1. CC(C)OC(=O)OCOC(=O)[C@H]1[C@@H]2CC[C@@](N)(C(=O)O)[C@@H]21
2. CN1CCN(Cc2cc(-c3ccccc3)c3c(n2)OCCN(Cc2cc(C(F)(F)F)cc(C(F)(F)F)c2)C3=O)CC1
3. O=C1c2ccc3cccnc3c2N=CC1S(=O)(=O)CC(F)(F)F (centres undefined)
4. O=C(O)C1C2C=CC(C2)C1C(F)(F)F (centres undefined)
5. COC(=O)Nc1nc2cc(SCC3CC3)ccc2[nH]1
6. CN(C)CCCCc1ccc(CO)o1
7. CC(C)Oc1cccc(NC(=O)NCc2c(-c3ccccc3)c3cc(Cl)ccc3n2C)c1

Out:
["196 to 197 °C", "181 to 182 °C", "272 to 274 °C", "85 to 90 °C", "228 to 231 °C", "24 °C", "218 to 220 °C"]
